- MEASUREMENT TARGET: Histone-lysine N-methyltransferase NSD2 (Homo sapiens) (UniProt O96028)
- Sequence (O96028 whole entry, looked up): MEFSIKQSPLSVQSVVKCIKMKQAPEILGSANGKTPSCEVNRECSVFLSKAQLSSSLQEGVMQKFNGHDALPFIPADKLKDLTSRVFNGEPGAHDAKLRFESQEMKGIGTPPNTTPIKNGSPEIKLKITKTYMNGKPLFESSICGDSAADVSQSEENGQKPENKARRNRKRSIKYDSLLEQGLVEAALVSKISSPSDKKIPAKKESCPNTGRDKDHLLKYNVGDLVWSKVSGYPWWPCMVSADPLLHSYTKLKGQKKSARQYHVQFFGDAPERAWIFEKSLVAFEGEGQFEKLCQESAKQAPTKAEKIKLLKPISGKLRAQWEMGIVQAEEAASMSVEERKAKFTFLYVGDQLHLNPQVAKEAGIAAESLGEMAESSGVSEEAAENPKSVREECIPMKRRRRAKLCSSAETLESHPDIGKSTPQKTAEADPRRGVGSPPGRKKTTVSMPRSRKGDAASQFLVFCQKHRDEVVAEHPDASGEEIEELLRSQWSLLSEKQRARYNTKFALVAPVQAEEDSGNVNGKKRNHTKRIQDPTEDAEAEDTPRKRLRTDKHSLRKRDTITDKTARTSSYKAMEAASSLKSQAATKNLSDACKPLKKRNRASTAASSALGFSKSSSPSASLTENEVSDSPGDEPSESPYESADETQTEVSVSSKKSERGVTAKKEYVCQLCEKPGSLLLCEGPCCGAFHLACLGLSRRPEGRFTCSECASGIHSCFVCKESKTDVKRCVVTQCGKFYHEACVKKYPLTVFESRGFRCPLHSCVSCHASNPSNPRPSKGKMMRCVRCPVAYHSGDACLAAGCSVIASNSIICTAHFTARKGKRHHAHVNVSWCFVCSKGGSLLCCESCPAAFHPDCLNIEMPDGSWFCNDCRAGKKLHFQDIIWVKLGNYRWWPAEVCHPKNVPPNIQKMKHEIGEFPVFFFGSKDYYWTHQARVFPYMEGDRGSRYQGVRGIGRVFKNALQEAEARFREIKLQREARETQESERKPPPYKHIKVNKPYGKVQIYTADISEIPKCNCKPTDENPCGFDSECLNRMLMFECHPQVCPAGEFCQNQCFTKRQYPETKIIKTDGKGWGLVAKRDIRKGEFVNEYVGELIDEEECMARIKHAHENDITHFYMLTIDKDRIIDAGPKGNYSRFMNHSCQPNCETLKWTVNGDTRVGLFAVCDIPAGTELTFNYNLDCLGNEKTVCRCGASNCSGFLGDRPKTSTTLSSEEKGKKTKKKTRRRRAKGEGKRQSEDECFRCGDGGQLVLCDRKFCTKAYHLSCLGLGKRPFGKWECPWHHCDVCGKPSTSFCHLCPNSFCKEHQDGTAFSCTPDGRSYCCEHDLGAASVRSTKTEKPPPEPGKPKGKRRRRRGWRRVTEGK
- METHOD DESCRIPTION: NSD2 histone methyltransferase inhibitors, primary screen, biochemical, AlphaScreen, single concentration, set 2 (AID 743445)
- SETTINGS: NSD2 peptide methylation, 120 min, at 12.5 µM, active compounds read high
Hit rate of the full screen: of about 310,000 compounds, about 1,700 (0.55%) were called active. For the sample, actives were picked, then their nearest neighbours and some compounds at random.
Entries and their inhibition values follow.

>  <MOLECULE>
O=C(NCc1cccs1)C1CCN(S(=O)(=O)c2ccccc2[N+](=O)[O-])CC1

>  <inhibition [%]>
-1.94

$$$$
>  <MOLECULE>
CCN(CC)CCn1c2ccc(Cl)cc2c2nc(C)sc21

>  <inhibition [%]>
14.7

$$$$
>  <MOLECULE>
O=C(CN1CCOCC1)N/N=C/c1ccc(-c2ccc(Br)cc2)o1

>  <inhibition [%]>
4.03

$$$$
>  <MOLECULE>
Cc1sc2ncnc(SCC(=O)Nc3ccc(CN4CCCC4)cc3)c2c1C

>  <inhibition [%]>
56.5

$$$$
>  <MOLECULE>
CCOc1ccccc1Nc1nnc(SCc2ccc(C(=O)OC)o2)s1

>  <inhibition [%]>
103

$$$$
>  <MOLECULE>
O=C(NCc1ccco1)c1nc(-c2ccccc2)n(-c2ccccc2)n1

>  <inhibition [%]>
59.6

$$$$
>  <MOLECULE>
O=C(CNC(=O)C1COc2ccccc2O1)N/N=C/c1cc(Br)c(O)c(Br)c1 (configuration not stated)

>  <inhibition [%]>
26.9

$$$$
>  <MOLECULE>
Oc1ccc2ccccc2c1N=Nc1nccs1

>  <inhibition [%]>
34.1

$$$$
>  <MOLECULE>
Cc1ccc(-n2c(SCC(=O)Nc3ccc(S(=O)(=O)Nc4nccs4)cc3)nnc2-c2ccncc2)cc1

>  <inhibition [%]>
6.51

$$$$
>  <MOLECULE>
Cc1ccc(-c2ccc(/C=N/NC(=O)CN3CCOCC3)o2)cc1[N+](=O)[O-]

>  <inhibition [%]>
59.9

$$$$
>  <MOLECULE>
Cc1c(CC(=O)N2CCN(C(=O)C3COc4ccccc4O3)CC2)c(=O)oc2c(O)c(O)ccc12 (configuration not stated)

>  <inhibition [%]>
125

$$$$
>  <MOLECULE>
O=C(NCc1cccnc1)c1cc(C2CCCN(C(=O)CCCc3ccccc3)C2)on1 (configuration not stated)

>  <inhibition [%]>
-1.28

$$$$
>  <MOLECULE>
Oc1c(C=Nc2cccc3nsnc23)ccc2ccccc12

>  <inhibition [%]>
109

$$$$
>  <MOLECULE>
CCc1ccc(NC(=O)Cn2nnc(C(=O)NCc3ccc(OC)cc3)c2N)cc1

>  <inhibition [%]>
-10.9

$$$$
>  <MOLECULE>
CCN(CC)S(=O)(=O)c1ccc(N2CCOCC2)c(NC(=O)C2COc3ccccc3O2)c1 (configuration not stated)

>  <inhibition [%]>
-0.001

$$$$
>  <MOLECULE>
O=C(NCCCN1CCOCC1)c1cc(-c2cccc(O)c2)on1

>  <inhibition [%]>
-0.66

$$$$
>  <MOLECULE>
Cc1ccccc1CS(=O)(=O)Cc1ccc(C(=O)Nc2ccc(Cl)cc2)o1

>  <inhibition [%]>
1.09

$$$$
>  <MOLECULE>
CC1(Oc2ccc(Cl)cc2)CCN(Cc2csc3ccccc23)C1 (configuration not stated)

>  <inhibition [%]>
-2.85

$$$$
>  <MOLECULE>
O=C(CSc1nc2ccccc2s1)N=Nc1c(O)[nH]c2ccccc12

>  <inhibition [%]>
2.59

$$$$
>  <MOLECULE>
CCOc1ccccc1Nc1nnc(SCC(=O)Nc2cc(C)on2)s1

>  <inhibition [%]>
-5.24

$$$$
>  <MOLECULE>
COC(=O)c1c(-c2cccs2)csc1NC(=O)CSc1ncnc2sc(C)c(C)c12

>  <inhibition [%]>
-3.04

$$$$
>  <MOLECULE>
O=C(CSc1nc2ccccc2n1Cc1ccccc1Cl)N/N=C\c1c[nH]c2ccccc12

>  <inhibition [%]>
3

$$$$

---

- MEASUREMENT TARGET: Histone-lysine N-methyltransferase NSD2 (Homo sapiens)
- METHOD DESCRIPTION: NSD2 histone methyltransferase inhibitors, primary screen, biochemical, AlphaScreen, single concentration, set 2 (AID 743445)
- SETTINGS: NSD2 peptide methylation, 120 min, at 12.5 µM
In all, about 310,000 compounds went through this assay and about 1,700 (0.55%) were called active. No stated cut-off is given here; in the data, active means inhibition above about 50%; inactive means the rest. Shown is part of a subset that was picked to be rich in actives.
Labels: active, inactive

>  <MOLECULE>
CC1(C(=O)Nc2cccc(Oc3ccccc3)c2)CCN1Cc1ccccc1Cl (configuration not stated)

>  <ASSIGNED CLASS>
inactive

$$$$
>  <MOLECULE>
Cc1ccc(-n2c(COc3ccccc3)nnc2SCC(=O)Nc2ccc3c(c2)OCCO3)cc1

>  <ASSIGNED CLASS>
inactive

$$$$
>  <MOLECULE>
CCOC(=O)C1=C(C)NC2=C(C(=O)CC(C)(C)C2)C1c1ccc2c(c1)OCO2 (configuration not stated)

>  <ASSIGNED CLASS>
inactive

$$$$
>  <MOLECULE>
O=C(Nc1ccccc1C(=O)Nc1ccc(F)cc1)c1ccccc1F

>  <ASSIGNED CLASS>
inactive

$$$$
>  <MOLECULE>
O=C1Nc2ccccc2OC1CC(=O)N1CCCCCCC1 (configuration not stated)

>  <ASSIGNED CLASS>
inactive

$$$$
>  <MOLECULE>
CC(=O)Oc1ccc2c(c1)C(=O)c1ccccc1C2=O

>  <ASSIGNED CLASS>
inactive

$$$$
>  <MOLECULE>
COC(=O)c1ccccc1-n1cc(COC(=O)NCCc2ccccc2)nn1

>  <ASSIGNED CLASS>
inactive

$$$$
>  <MOLECULE>
CC1(C(=O)Nc2cccc3c2CCCC3)CCN1C(=O)CCc1ccc(Cl)cc1Cl (configuration not stated)

>  <ASSIGNED CLASS>
inactive

$$$$
>  <MOLECULE>
CN(C)c1ccc(/C=N/Nc2cc(N3CCOCC3)nc(N3CCOCC3)n2)cc1

>  <ASSIGNED CLASS>
inactive

$$$$
>  <MOLECULE>
CC(=O)c1ccc(Nc2nc(C(N)c3ccccc3)cs2)cc1 (configuration not stated)

>  <ASSIGNED CLASS>
inactive

$$$$
>  <MOLECULE>
O=C(CSc1nnc(-c2cccc(Cl)c2)n1Cc1ccco1)Nc1ccc(OCc2ccccc2)cc1

>  <ASSIGNED CLASS>
inactive

$$$$
>  <MOLECULE>
C(=N/Nc1cc(N2CCOCC2)nc(N2CCOCC2)n1)/c1ccccc1

>  <ASSIGNED CLASS>
active

$$$$
>  <MOLECULE>
Nn1c(SCC(=O)Nc2ccc(S(N)(=O)=O)cc2)nnc1-c1n[nH]c2c1CCC2

>  <ASSIGNED CLASS>
inactive

$$$$
>  <MOLECULE>
CCC1(C)N(O)C(C)(C)C(c2ccc(OC)cc2)=[N+]1[O-] (configuration not stated)

>  <ASSIGNED CLASS>
inactive

$$$$
>  <MOLECULE>
CCC1=[N+]([O-])C(C)(/C(C)=N\O)N(O)C1(C)C (configuration not stated)

>  <ASSIGNED CLASS>
active

$$$$
>  <MOLECULE>
Nn1c(SCC(=O)Nc2cccc3ccccc23)nnc1-c1cc(-c2ccc(F)cc2)n[nH]1

>  <ASSIGNED CLASS>
inactive

$$$$
>  <MOLECULE>
CCOc1cc(NC(=S)NCCCOC)c(OCC)cc1NC(=O)c1ccco1

>  <ASSIGNED CLASS>
inactive

$$$$
>  <MOLECULE>
COc1ccc(/C=N/Nc2cc(N3CCOCC3)nc(C)n2)c(OC)c1

>  <ASSIGNED CLASS>
inactive

$$$$
>  <MOLECULE>
C/C(=N\O)C1(C)N(O)C(C)(C)C(c2ccc(Br)cc2)=[N+]1[O-] (configuration not stated)

>  <ASSIGNED CLASS>
inactive

$$$$
>  <MOLECULE>
Cc1nc2cc(NC(=O)NCc3ccccc3)ccc2o1

>  <ASSIGNED CLASS>
inactive

$$$$
>  <MOLECULE>
NC1=CC(=O)C(=O)c2cccnc21

>  <ASSIGNED CLASS>
active

$$$$
>  <MOLECULE>
CN(C)CCNC(=O)c1ccc(-c2cn3c(-c4ccc(Oc5ccccc5)cc4)cnc3cn2)cc1

>  <ASSIGNED CLASS>
inactive

$$$$

---

- MEASUREMENT TARGET: Histone-lysine N-methyltransferase NSD2 (Homo sapiens) (UniProt O96028)
- METHOD DESCRIPTION: NSD2 histone methyltransferase inhibitors, primary screen, biochemical, AlphaScreen, single concentration, set 2 (AID 743445)
- SETTINGS: NSD2 peptide methylation, 120 min, at 12.5 µM, active compounds read high
Among all 310,000 compounds or so, about 1,700 (0.55%) were called active. The list comes from a sample in which actives are over-represented; it also holds close analogues and randomly drawn compounds.
Recorded measurements of inhibition, one per entry
MEASURED PROPERTY: inhibition (%)

>  <COMPOUND>
CN(C(=O)CN1C(=O)S/C(=C\c2ccccc2F)C1=O)C1CCS(=O)(=O)C1 (stereo not given)

>  <MEASURED PROPERTY>
inhibition

>  <TEST VALUE>
71.1

$$$$
>  <COMPOUND>
CCOc1ccccc1C(=O)Nc1cccc(C(=O)Nc2cc(C)ccn2)c1

>  <MEASURED PROPERTY>
inhibition

>  <TEST VALUE>
1.28

$$$$
>  <COMPOUND>
COc1ccc(NC(=O)C2Cc3c(-c4ccc(Cl)cc4)ccnc3O2)cc1 (stereo not given)

>  <MEASURED PROPERTY>
inhibition

>  <TEST VALUE>
54.6

$$$$
>  <COMPOUND>
Cc1nc([N+](=O)[O-])cn1CC(=O)Nc1ccc2c(c1)OCO2

>  <MEASURED PROPERTY>
inhibition

>  <TEST VALUE>
-1.66

$$$$
>  <COMPOUND>
COc1cccc(-c2cc(CNC(=O)[C@@H](Cc3ccccc3)NC(=O)[C@H]3O[C@@H](n4cnc(C(N)=O)n4)[C@H](O)[C@@H]3O)no2)c1

>  <MEASURED PROPERTY>
inhibition

>  <TEST VALUE>
-0.483

$$$$
>  <COMPOUND>
Cc1ccccc1NC(=O)COC(=O)c1ccc(Sc2ncn[nH]2)c([N+](=O)[O-])c1

>  <MEASURED PROPERTY>
inhibition

>  <TEST VALUE>
-0.523

$$$$
>  <COMPOUND>
Cc1nc([N+](=O)[O-])cn1CC(=O)Nc1ccc(Cl)cc1

>  <MEASURED PROPERTY>
inhibition

>  <TEST VALUE>
-0.868

$$$$
>  <COMPOUND>
Cc1cccc(OCC(=O)Nc2ccccc2F)c1

>  <MEASURED PROPERTY>
inhibition

>  <TEST VALUE>
12.4

$$$$
>  <COMPOUND>
N#Cc1ccc(CSc2nnc3ccccn23)cc1

>  <MEASURED PROPERTY>
inhibition

>  <TEST VALUE>
-1.73

$$$$
>  <COMPOUND>
COC(=O)[C@H](Cc1ccccc1)NC(=O)Nc1ccc(OC)cc1

>  <MEASURED PROPERTY>
inhibition

>  <TEST VALUE>
-1.09

$$$$
